experimental_details: in vitro
condition_notes: human, hela cells, % viability
Reported values of viability at 28.5 h, 10 µM for individual entries
property: viability at 28.5 h, 10 µM (%)

COc1ccc(C2(CN3CCC(NC(C)=O)CC3)CC2)cc1 [CBK285357]; 101
CC(C)Cc1[nH]nc(O)c1-c1ccccc1 [CBK075134]; 103
CC[C@H]1CN(C(=O)Nc2cccc(C(F)(F)F)c2)CC[C@H]1CC(=O)O [CBK288776]; 89.3
Cn1ccnc1C1(O)CCN(C(=O)c2cc(F)cc(F)c2)CC1 [CBK283544]; 102
O=C(CCN1CCc2ccccc2C1)Nc1ccccc1F [CBK264202]; 94.9
Cc1cc(C(=O)NCCn2nc(C)c(C)c2C)c2cccc(C)c2n1 [CBK281388]; 110
CC(=O)Nc1ccc(-c2ccc(COC3CCN(C(=O)Cc4ccc(C#N)cc4)CC3)cc2)cc1 [CBK149225]; 91.7
O=C(CSc1oc(-c2ccco2)nc1S(=O)(=O)c1ccccc1)c1ccccc1 [CBK268424]; 96.9
Cc1csc2c(C3CCN(C(=O)c4ccnn4C)CC3)nc(C)n12 [CBK285249]; 94.3

* * *

Reported values of viability at 28.5 h, 10 µM for individual entries
experimental_details: in vitro
condition_notes: human, hela cells, % viability
property: viability at 28.5 h, 10 µM (%)

CC(C)Cn1c(SCC(=O)Nc2ccc(OC(F)F)cc2)nc(O)cc1=O; 91.2
Cc1nc(CN2CCC(Oc3nccnc3OCc3ccc(Cl)c(Cl)c3)CC2)cs1; 95.9
OCCOc1ccccc1OCCO; 93.6
CCc1nn(CCN2CCCC2)c(=O)c2cc3sccc3n12; 83.5
O=C(c1cccnc1)C1CCN(C(=O)c2ccccc2F)CC1; 95.1
O=C(C1CCCC1)N1CCC(c2nnc(-c3ccsc3)o2)CC1; 86.5
Cc1ccc2cc(CN(Cc3ccco3)C(=O)c3cccs3)c(O)nc2c1; 105
O=S(=O)(Nc1nn(Cc2ccc(C(F)(F)F)cc2)c2ccccc12)c1cccc2nsnc12; 94.8
CC[C@H]1CN(C(=O)c2cccnc2)CC[C@H]1CC(=O)NCc1ccc2c(c1)OCO2; 87.7

* * *

Reported values of viability at 28.5 h, 10 µM for individual entries
experimental_details: in vitro
condition_notes: human, hela cells, % viability
property: viability at 28.5 h, 10 µM (%)

C[C@@H](Nc1nc(-c2ccccc2)cnc1N)c1ccccc1 [CBK063728]; 98.9
COc1cccc(/C=C\c2[nH]c(=O)[nH]c(=O)c2[N+](=O)[O-])c1OCC(=O)O [CBK266822]; 104
O=C(O)C1CCCN(C(=O)Cn2ccc3ccc(OCc4ccccc4)cc32)C1 (stereo not shown) [CBK286814]; 89.6
CS(=O)(=O)Nc1ncc(-c2ccco2)cc1C(=O)NCCc1c[nH]c2ccccc12 [CBK076569]; 90.5
COc1cccc2c3c([nH]c12)C1(CCN(CCc2scnc2C)CC1)NCC3 [CBK040058]; 89
Clc1ccc(CN2CCN(c3nccnc3OCc3cccnc3)CC2)cc1 [CBK083130T]; 99.6
Clc1ccc(-c2nc(C3CCN(CCc4ccccc4)CC3)n3ccccc23)cc1 [CBK035316]; 90.7
CCCOc1ccc(S(=O)(=O)NCc2ccncc2)c2ccccc12 [CBK268780]; 83.3
Nc1cccc(-c2cc(Nc3ccc(CCO)cc3)ncn2)c1 [CBK090766]; 104
COc1ccc2[nH]cc(CCNC(=O)N3CCN(CCN4CCOCC4)CC3)c2c1 [CBK155818]; 101
COc1ccc(C(=O)n2nc(SC)nc2N)cc1 [CBK006853]; 100
Cc1nn(C)c(Cl)c1S(=O)(=O)Nc1nc(=O)[nH]cc1F [CBK067568]; 99.1
CC(=O)N1CCC[C@H]2NC(=O)CNC(=O)C3(C/C=C/C[C@H]21)CCN(C(=O)CCC(=O)O)CC3 [CBK292174]; 85
COCCSc1nc2c(c(=O)[nH]c(=O)n2C)n1CCCc1ccccc1 [CBK140504]; 90.9
Cc1ccc(C2=CCN(CC(=O)NCc3ccco3)CC2)o1 [CBK283632]; 107
CNC(=O)Nc1cc(C(O)(C(F)(F)F)C(F)(F)F)ccc1C [CBK006970]; 113
CCOC(=O)N1CCN(Cc2ccc(OCC3CCCNC3)cc2)CC1 (stereo not shown) [CBK307355]; 73.8
CC(CCN1CCN(CCO)CC1)c1ccccc1 (stereo not shown) [CBK261876]; 102
CCCNc1nccnc1-c1cccc(CO)c1 [CBK088897]; 91.5
